- TARGET ENTITY: T1, human FAPα-His tag (Sino biological) (human, UniProt Q12884 26-760)
- T1 construct: Bought protein; also called human FAPα-His protein; not shown: His tag
- T1 sequence (looked up): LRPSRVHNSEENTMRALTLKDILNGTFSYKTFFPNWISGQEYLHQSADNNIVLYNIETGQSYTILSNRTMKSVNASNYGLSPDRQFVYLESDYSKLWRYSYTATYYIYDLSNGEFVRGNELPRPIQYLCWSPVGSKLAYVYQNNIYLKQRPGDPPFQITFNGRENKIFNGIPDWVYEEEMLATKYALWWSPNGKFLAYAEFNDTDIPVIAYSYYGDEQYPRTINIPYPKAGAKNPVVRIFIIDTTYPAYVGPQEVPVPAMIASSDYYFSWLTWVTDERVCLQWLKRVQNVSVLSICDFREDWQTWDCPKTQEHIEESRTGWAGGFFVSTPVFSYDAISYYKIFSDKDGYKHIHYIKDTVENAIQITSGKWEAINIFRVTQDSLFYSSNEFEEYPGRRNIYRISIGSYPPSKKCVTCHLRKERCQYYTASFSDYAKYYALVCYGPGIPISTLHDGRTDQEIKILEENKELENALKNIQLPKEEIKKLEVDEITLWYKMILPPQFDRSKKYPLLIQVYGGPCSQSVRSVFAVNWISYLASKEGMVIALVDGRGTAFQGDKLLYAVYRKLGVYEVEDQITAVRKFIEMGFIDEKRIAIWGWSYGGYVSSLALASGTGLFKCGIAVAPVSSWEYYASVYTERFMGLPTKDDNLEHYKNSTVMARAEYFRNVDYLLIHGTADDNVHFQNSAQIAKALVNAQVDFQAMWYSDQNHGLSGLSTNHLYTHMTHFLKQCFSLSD
- ASSAY: competitive ELISA on coated human FAPα; biotinylated mAb alone, no competing Ab (row '0')
The following binders are shown together with reported OD 450 nm values.

# BINDER, OD 450 nm / OD 450 nm
data = [
    ("I38 (antibody, V domains shown, Tested as a mAb; also called FAP-I38) VH: EVQLVQSGAEVKEPGVSVKVSCKASGYTFASYGLSWVRLAPGQGLQWMGWISPYTPNPIYAPNFRDKVILTTDRSTNTAYLEVRSLRSDDTGLYYCARNHWVGRPTRAFDLWGQGTMVTVSA VL: EIVLTQSPGTLSLSPGERATLSCRASQTVSITHLAWYQQKPGQAPRLLTYGASARATGIPDRFSVSGSGTDFTLTITRLEPEDFAVYYCQHYGSSITFGGGTKVEIK", 1.21),
    ("G52 (antibody, V domains shown, Tested as a mAb; also called FAP-G52; FAP-G52-Bio (biotin-conjugated form)) VH: EVQLLESGGDLVQPGGSLRLSCAASGFTFSSYAMSWVRQAPGKGLEWVSGISNGGDSIAYADSVKGRFTVFRDNAKNTLYLQMNSLRAEDTAIYYCARGNYYAHDDWGQGTLVTVSA VL: DIQLTQSPSSVSASVGDRVTITCRASQGVGSWLAWYQQKPGKPPKLLIYAASSLQSGVPSRFSGSGSGTDFTLTISSLQPEDFATYYCQQANSFPLTFGGGTKVEIK", 1.26),
    ("J40 (antibody, V domains shown, Tested as a mAb; also called FAP-J40; FAP-J40-Bio (biotin-conjugated form)) VH: EVQLLESGGGLVQPGGSLRLSCAASGFTFSSYAMSWVRQAPGKGLEWVSAISGSGGSTYYADSVKGRFTISRDNSKNTLYLQMNSLRTDDTAVYYCARDLTTSTGWESWGQGTLVTVSA VL: NIQMTQSPSSVSASVGDRVTITCRASQGISSWLAWYQQKPGKAPKLLIYAASSLQSGVPSRFSGSGSGTDFTLTISSLQPEDFATYYCQQANSFPPTFGQGTKLEIK", 1.2),
    ("I37 (antibody, V domains shown, Tested as a mAb; also called FAP-I37) VH: QLQLVESGGGLVQPGGSLRLSCAASGFTFSSYAMSWVRQAPGKGLEWVSAISGSGGSTYYADSVKGRFTISRDNSKNTLYLQMNSLRAEDTAVYYCARDKPWGGSFDYWGQGTLVTVSA VL: DIQLTQSPSSLSASVGDRVTITCRASQGISSWLAWYQQKPGKAPKLLIYAASSLQSGVPSRFSGSGSGTDFTLTISSLQPEDFATYYCQQANSFPVTFGPGTKVDIK", 1.72),
    ("G14 (antibody, V domains shown, Full human antibody from a Fab phage library; Tested as a mAb (detected with anti-human IgG, captured on Protein A); also called FAP-G14; FAP-G14-Bio (biotin-conjugated form)) VH: QVQLLESGGGVVQPGRSLRLSCAASGFTFSSYAMHWVRQAPGKGLEWVAFISHDGNRNSYADSVRGRFTISRDNSKNTLYLQMNSLRAEDTAVYYCARDLGYYNGFSYWGQGTLVTVSA VL: DIVMTQSPSSVSASVGDRVTITCRASQGISSWLAWYQQKPGKAPKLLIYAASSLQSGVPSRFSGSGSGTDFTLTISSLQPEDFATYYCQQANSFPPTFGPGTKVDIK", 2.15),
]
